Listed compounds paired with reported pIC50
Target entity: UniProt Q14831
Sequence (Q14831 35-922 isoform Q14831-2): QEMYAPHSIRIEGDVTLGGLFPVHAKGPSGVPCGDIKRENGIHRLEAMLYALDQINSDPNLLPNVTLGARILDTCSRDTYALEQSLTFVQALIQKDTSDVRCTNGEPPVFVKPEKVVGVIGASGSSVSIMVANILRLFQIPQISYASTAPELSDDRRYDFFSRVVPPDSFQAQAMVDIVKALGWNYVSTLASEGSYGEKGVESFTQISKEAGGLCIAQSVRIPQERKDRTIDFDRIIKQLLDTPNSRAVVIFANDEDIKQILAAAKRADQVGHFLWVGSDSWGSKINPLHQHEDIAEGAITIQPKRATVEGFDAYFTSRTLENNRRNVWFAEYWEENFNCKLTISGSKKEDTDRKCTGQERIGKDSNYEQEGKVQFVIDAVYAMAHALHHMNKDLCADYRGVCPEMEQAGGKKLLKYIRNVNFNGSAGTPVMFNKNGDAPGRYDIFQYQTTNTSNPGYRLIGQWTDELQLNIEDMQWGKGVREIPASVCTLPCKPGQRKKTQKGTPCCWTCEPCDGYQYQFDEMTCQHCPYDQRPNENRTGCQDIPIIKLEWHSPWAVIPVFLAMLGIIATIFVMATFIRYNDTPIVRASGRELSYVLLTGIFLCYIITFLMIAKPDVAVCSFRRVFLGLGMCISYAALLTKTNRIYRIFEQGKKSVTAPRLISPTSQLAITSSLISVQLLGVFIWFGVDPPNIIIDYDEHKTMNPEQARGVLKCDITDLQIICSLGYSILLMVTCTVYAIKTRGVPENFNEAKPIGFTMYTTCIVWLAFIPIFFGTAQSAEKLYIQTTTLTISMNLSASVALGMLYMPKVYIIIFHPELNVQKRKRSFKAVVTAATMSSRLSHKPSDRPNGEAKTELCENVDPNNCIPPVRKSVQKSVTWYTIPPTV
Method description: mGlu7 assay on HEK-expressing human mGlu7: fluorescent cell based Ca2+ mobilization assay (FLIPR), inhibition of EC80 L-AP4 response
Assay context: HEK-293 cells expressing hmGlu7; EC80 L-AP4 stimulation; mean of at least three independent experiments in duplicate; read-out: Ca2+ Flux (mean IC50)
pIC50: −log10 of the molar value.

test_smiles=CCc1c2c(=O)n(-c3ccccc3)ncc2c(C)n1-c1cccc(OC)c1 readout=pIC50 result="6.00 to 7.00"
test_smiles=CC(=O)c1ccc(-n2c(C)c3cnn(-c4ccccn4)c(=O)c3c2C)cc1 readout=pIC50 result="5.00 to 6.00"
test_smiles=Cc1ccc(-n2c(C)c3cnn(-c4ccccc4)c(=O)c3c2C)cc1 readout=pIC50 result="> 7.00"
test_smiles=COCc1cccc(-n2c(C)c3cnn(-c4ccccn4)c(=O)c3c2C)c1 readout=pIC50 result="5.00 to 6.00"
test_smiles=COCc1ccc(-n2ncc3c(C)n(-c4cccc(N5CCOCC5)c4)c(C)c3c2=O)cc1 readout=pIC50 result="6.00 to 7.00"

*Q* Given the entry COc1cccc(-n2c(C)c3cnn(-c4ccccn4)c(=O)c3c2C)c1Cl , report its measured pIC50.
*A* 6.00 to 7.00

*Q* Which value of pIC50 has been reported for Cc1cc(-n2ncc3c(C)n(-c4cccc(N5CCC5)c4)c(C)c3c2=O)ccn1 in the records?
*A* > 7.00

*Q* Which pIC50 is reported for this compound? Cc1c2cnn(-c3ncc(F)cn3)c(=O)c2c(C)n1-c1cccc(N2CCC2)c1
*A* > 7.00

*Q* Which pIC50 value is on record for Cc1c2cnn(-c3ccc(S(N)(=O)=O)cc3)c(=O)c2c(C)n1-c1cccc(N2CCOCC2)c1 ?
*A* 6.00 to 7.00
